Some compounds, each annotated with its measured melting point.
observed property: melting point

>>> reported_result("CC(C)(C)OC(=O)NCCOC(=O)COc1ccc(CCCCNC(N)=NC(=O)c2nc(Cl)c(N)nc2N)cc1")
"80 to 82 °C"
>>> reported_result("CN(C)CCCCNC(=O)COc1ccc(CCCCNC(=N)NC(=O)c2nc(Cl)c(N)nc2N)cc1")
"188 to 190 °C"
>>> reported_result("N=C(NCCCCc1ccc(OCC(=O)N2CCNCC2)cc1)NC(=O)c1nc(Cl)c(N)nc1N")
"72 to 74 °C"

----------
target under test: Epithelial Sodium Channel (ENaC) (Canis lupus familiaris, UniProt A0A8I3MKE6+A0A8I3Q679+Q95165)
Construct: endogenous in cells; host or cells: primary canine bronchial epithelial cells from freshly excised airways, cultured at air-liquid interface and mounted in Ussing chambers
Sequence (A0A8I3Q679 1-649): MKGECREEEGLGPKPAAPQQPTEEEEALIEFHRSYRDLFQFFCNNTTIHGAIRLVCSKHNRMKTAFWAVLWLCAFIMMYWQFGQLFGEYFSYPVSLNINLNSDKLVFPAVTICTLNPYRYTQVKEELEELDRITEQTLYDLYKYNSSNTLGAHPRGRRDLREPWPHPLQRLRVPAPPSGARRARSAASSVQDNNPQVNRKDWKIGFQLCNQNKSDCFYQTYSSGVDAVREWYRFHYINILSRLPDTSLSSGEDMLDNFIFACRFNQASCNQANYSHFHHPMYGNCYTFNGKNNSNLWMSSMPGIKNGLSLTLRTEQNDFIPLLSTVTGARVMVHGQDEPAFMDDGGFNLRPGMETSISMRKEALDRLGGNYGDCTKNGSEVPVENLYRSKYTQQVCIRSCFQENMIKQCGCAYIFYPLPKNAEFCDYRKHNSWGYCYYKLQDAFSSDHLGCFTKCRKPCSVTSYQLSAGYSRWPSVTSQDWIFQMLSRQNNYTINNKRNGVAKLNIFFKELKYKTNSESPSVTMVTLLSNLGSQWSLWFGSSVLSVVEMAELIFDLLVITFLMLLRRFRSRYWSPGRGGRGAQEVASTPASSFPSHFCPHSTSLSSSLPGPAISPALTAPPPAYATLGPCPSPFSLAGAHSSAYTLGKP
Sequence (Q95165 whole entry): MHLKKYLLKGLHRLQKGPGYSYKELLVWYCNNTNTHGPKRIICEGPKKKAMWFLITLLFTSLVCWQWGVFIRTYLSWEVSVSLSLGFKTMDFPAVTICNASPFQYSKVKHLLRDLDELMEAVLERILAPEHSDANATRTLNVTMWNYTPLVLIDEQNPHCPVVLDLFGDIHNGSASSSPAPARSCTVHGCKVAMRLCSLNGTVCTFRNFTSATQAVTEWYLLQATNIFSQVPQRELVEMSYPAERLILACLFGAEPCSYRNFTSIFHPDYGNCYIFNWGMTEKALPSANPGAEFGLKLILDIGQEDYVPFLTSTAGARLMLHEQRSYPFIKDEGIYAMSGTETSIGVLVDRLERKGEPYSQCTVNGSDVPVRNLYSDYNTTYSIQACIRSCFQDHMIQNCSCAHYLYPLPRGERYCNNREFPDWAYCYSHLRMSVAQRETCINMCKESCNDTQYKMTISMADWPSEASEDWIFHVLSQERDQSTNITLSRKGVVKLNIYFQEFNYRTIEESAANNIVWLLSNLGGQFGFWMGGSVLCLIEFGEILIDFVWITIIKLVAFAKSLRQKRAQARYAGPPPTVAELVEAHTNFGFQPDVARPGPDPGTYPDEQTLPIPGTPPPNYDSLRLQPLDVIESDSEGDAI
Sequence (A0A8I3MKE6 1-646): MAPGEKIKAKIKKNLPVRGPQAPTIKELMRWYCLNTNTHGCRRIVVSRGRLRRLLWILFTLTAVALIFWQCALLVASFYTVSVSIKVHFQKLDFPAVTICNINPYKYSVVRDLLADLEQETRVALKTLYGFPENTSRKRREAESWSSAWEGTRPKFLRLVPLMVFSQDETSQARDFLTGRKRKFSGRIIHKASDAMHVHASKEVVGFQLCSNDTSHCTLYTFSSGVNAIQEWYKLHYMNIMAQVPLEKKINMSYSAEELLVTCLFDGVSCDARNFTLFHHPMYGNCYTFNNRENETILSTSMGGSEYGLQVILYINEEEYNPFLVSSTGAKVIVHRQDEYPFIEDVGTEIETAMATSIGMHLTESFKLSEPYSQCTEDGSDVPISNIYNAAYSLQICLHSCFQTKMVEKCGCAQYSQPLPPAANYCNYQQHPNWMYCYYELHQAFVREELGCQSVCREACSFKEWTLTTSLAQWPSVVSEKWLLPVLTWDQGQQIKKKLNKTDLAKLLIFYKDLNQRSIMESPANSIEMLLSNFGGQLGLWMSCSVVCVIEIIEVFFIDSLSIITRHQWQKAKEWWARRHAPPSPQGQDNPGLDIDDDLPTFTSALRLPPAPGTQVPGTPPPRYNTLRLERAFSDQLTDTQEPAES
experimental protocol: Sodium channel (ENaC) blocking activity, short circuit current in airway epithelial monolayers in Ussing chambers
Type: cell-based
assay context: relative potency, PSA4022 = 100, using IC50 from PSA4022 in same run; canine bronchial epithelium; Table 3
From the text: One assay used to assess mechanism of action and/or potency of the compounds of the present invention involves the determination of lumenal drug inhibition of airway epithelial sodium currents measured under short circuit current (ISC) using airway epithelial monolayers mounted in Ussing chambers. […] All test drug additions are to the lumenal bath with half-log dose addition protocols (from 1×10^−11 M to 3×10^−5 M), and the cumulative change in ISC (inhibition) recorded. […]
Some compounds, each annotated with its measured Fold Amiloride (PSA4022 = 100).
observed property: Fold Amiloride (PSA4022 = 100)

>>> reported_result("N=C(NCCCCc1ccc(OCC(N)=O)cc1)NC(=O)c1nc(Cl)c(N)nc1N [PSA 9714, reference compound]")
62
>>> reported_result("N=C(NCCCCc1ccc(OCC(=O)NCCN)cc1)NC(=O)c1nc(Cl)c(N)nc1N")
146
>>> reported_result("CN(C)CCNC(=O)COc1ccc(CCCCNC(=N)NC(=O)c2nc(Cl)c(N)nc2N)cc1 [PSA 23185a]")
59
>>> reported_result("CN(C)CCCNC(=O)COc1ccc(CCCCNC(=N)NC(=O)c2nc(Cl)c(N)nc2N)cc1 [PSA 24304, dimethanesulfonate]")
173

Data origin, for the record: patent US8008494B2
